Catalogue of apparent KD of MS2 coat protein values
test system: MS2 coat protein; experiment: apparent KD of MS2 coat protein; designed switch direction (-1 OFF switch, 1 ON switch): -1; higher = weaker reporter binding; conditions: input ligand: FMN 200 uM
measure_name: apparent KD of MS2 coat protein (nM)

ordered_residues="UAAAAGUCAGGAUAUACAUGAGGAUCACCCAUGUAAAAUUUUAAUUUAAUUUUAAGGUGUAGAAGGGACAAUUU [Ex3 #1] (Eterna round: R97, puzzle: Exclusion 3)" assay_result=32.5
ordered_residues="GGGAGGAGUGUAGGAUAUCCGACAAUCCUGUCAGGAGAAGGGCACCCUACUUGAGGAUCACCCAAGUCUCCGGGUGCUCAAGAA [Mutated MS2 EX1.15] (Eterna round: R96, puzzle: Exclusion NG 1)" assay_result=9.33
ordered_residues="AACCAGCGAGGAUAUGCUUGAGCUUGUUCUGGUUAUAAUCGACUUGAGGAUCACCCAAGUAGAAGGUGCUGACG [EX2 #58] (Eterna round: R97, puzzle: Exclusion 2)" assay_result=25.6
